Tested system: human IL-1β (human, UniProt P01584 117-269)
Assay explanation: cell-based or functional assay
# IL-1β IC50 listing for each entry below
For clarity, give the value followed by its unit.

Look up and state reported IL-1β IC50 for ABT2-65-17/ABT1-141 hu IgG1/K wt (bispecific antibody, V domains shown) VH: EVQLLESGGGLVQPGGSLRLSCVASGFTFEDYQMGWVRQAPGKGLEWVSSISAMGNRTYYADSVKGRFTISRDDSKNTLYLQMNSLRAEDTAVYYCAQNLVRLGRSRWMFDYWGQGTLVTVSS VL: DIQMTQSPSSLSASVGDRVTITCRASQWIQKQLAWYQQKPGKAPKLLIYSSSYLQSGVPRFSGSGSGTDFTLTISSLQPEDFATYYCQQHLRVPFTFGQGTKVEIKR
0.4 nM

Turning now to a further binder:
Look up and state reported IL-1β IC50 for ABT2-108/ABT1-122-505 hu IgG1/K wt (bispecific antibody, V domains shown) VH: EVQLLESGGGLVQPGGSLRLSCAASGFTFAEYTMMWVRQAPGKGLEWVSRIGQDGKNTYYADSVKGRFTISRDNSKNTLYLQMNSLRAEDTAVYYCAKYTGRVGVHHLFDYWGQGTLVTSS VL: DIQMTQSPSSLSASVGDRVTITCRASQPIWTELNWYQQKPGKAPKLLIYGSSSLQSGVPSRFSGSGSGTDFTLTISSLQPEDFATYYCKQFAYFPATFGQGTKVEIKR
20 nM
